- assay system: farnesyl transferase (Homo sapiens, UniProt P49354+P49356)
- measurement notes: Farnesyl transferase inhibition, [3H]-farnesylation of biotinylated K-ras C-terminal peptide (SPA assay)
- Assay type: biochemical
- condition label: K-Ras substrate; 60 min at 37° C.; mean of two IC50 values; read-out: In vitro inhibitory activity (K-Ras) IC50
measured endpoint: IC50 (µM)

# compound, measured endpoint, assay result
records = [
    ("C=C(C(=O)N1C[C@@H]2[C@]3(c4cccc(C)c4)CC[C@@H](c4ccccc43)[C@]2(C(=O)OC)C1)c1ccccc1OC (racemic)", "IC50", 0.431),
]

I: C=C(C(=O)N1C[C@H]2[C@@]3(c4ccc(C)s4)CC[C@@H](c4ccccc43)[C@]2(C(=O)OC)C1)c1ccccc1OC (racemic)
II: C=C(C(=O)N1C[C@H]2[C@@]3(c4ccc(C)cc4)CC[C@H](c4ccccc43)[C@@]2(C(=O)O)C1)c1ccccc1OC (single isomer, unassigned) [Example 4]
Query: Lab note: check whether I or II shows the higher recorded IC50. Returns: label corresponding to the selected item.
Result: II

====

- assay system: farnesyl transferase (Homo sapiens, UniProt P49354+P49356)
- measurement notes: Farnesyl transferase inhibition, [3H]-farnesylation of biotinylated K-ras C-terminal peptide (SPA assay)
- Format: biochemical
- condition label: K-Ras substrate; 60 min at 37° C.; mean of two IC50 values; read-out: In vitro inhibitory activity (K-Ras) IC50
measured endpoint: IC50 (µM)

# compound, assay result
records = [
    ("COc1ccc([C@]23CC[C@H](c4ccccc42)[C@@]2(C(=O)O)CN(C(=O)Cc4ccccc4OC)C[C@@H]32)cc1 (relative stereo)", 0.0575),
    ("C=C(C(=O)N1C[C@@H]2[C@]3(c4ccc(C#N)cc4)CC[C@@H](c4ccccc43)[C@]2(C(=O)O)C1)c1ccccc1OC (racemic)", 0.177),
    ("C=C(C(=O)N1C[C@@H]2[C@]3(c4ccc(C(F)(F)F)cc4)CC[C@@H](c4ccccc43)[C@]2(C(=O)NNC(=O)c2ccccc2)C1)c1ccccc1OC (relative stereo)", 0.59),
    ("C=C(C(=O)N1C[C@H]2[C@@]3(c4ccc5c(c4)OCCO5)CC[C@H](c4ccccc43)[C@@]2(C(=O)NCc2cccnc2)C1)c1ccccc1OC (relative stereo) [Example 33]", 0.242),
    ("C=C(C(=O)N1C[C@@H]2[C@]3(c4cccc(C#N)c4)CC[C@@H](c4ccccc43)[C@]2(C(=O)OC)C1)c1ccccc1OC (racemic)", 0.955),
    ("C=C(C(=O)N1C[C@@H]2[C@]3(c4ccc(OC)c(O)c4)CC[C@@H](c4ccccc43)[C@]2(C(=O)O)C1)c1ccccc1OC (racemic)", 0.04),
]

P: C=C(C(=O)N1C[C@H]2[C@@]3(c4ccc(OC)cc4)CC[C@H](c4ccccc43)[C@@]2(C(=O)O)C1)c1ccccc1OC (single isomer, unassigned)
Q: C=C(C(=O)N1C[C@H]2[C@@]3(c4ccc(OC)cc4)CC[C@H](c4ccccc43)[C@@]2(C(=O)NNc2cccnc2)C1)c1ccccc1OC (relative stereo)
R: C=C(C(=O)N1C[C@@H]2[C@]3(c4ccc(C(C)C)cc4)CC[C@@H](c4ccccc43)[C@]2(C(=O)O)C1)c1ccccc1OC (racemic)
S: C=C(C(=O)N1C[C@@H]2[C@]3(c4ccc(C)cc4)CC[C@@H](c4c(OC)cccc43)[C@]2(C(=O)O)C1)c1ccccc1OC (racemic)
T: C=C(C(=O)N1C[C@@H]2[C@]3(c4ccccc4C)CC[C@@H](c4ccccc43)[C@]2(C(=O)O)C1)c1ccccc1OC (racemic)
Query: Hey, can you sort those compounds up there by IC50, smallest first? As an answer, provide the labels arranged in the order called for.
Result: P, S, Q, T, R
(P: 0.008 µM, S: 0.018 µM, Q: 0.045 µM, T: 0.099 µM, R: 0.28 µM)
